- protocolDescription: protein stability index of a GFP-peptide fusion (GPS, HEK-293T) (PSI 1-6); higher = more stable;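 also: 24-mer peptide tiles fused after GFP, lentivirally expressed, FACS-sorted into six equal bins by GFP/DsRed ratio, decoded by Illumina sequencing, PSI is the read-weighted mean bin number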
- measurementConditions: treatment: DMSO; c terminus: a fixed tail appended
reportedProperty: protein stability index
API note: the answer field is a bare number with no unit suffix.

A selection of reference data follows.
               macromoleculesequence  valueobserved
0   GPRDPQLVPILIEAARNGKMKFVI [NSDHL]           2.11
1  VTFREENTIAFRHLFLLGYSDGAD [MCOLN1]           2.38
2   TCLTGVLGVGLGVEISRRLRHSNP [SPNS1]           2.36

Query :: Item AVGGRLRLVPGGQRPADVPEPGRA [HAGHL] has what recorded protein stability index?
Result :: 4.22

Query :: Input MAERLEDSVLKGMQAASSKMVSAE [SDE2]
Result :: 4.54

Query :: Please do the same for EAQLLQLKVKCLNNLAASQLKLDH [FKBP8] as well.
Result :: 2.69

Query :: Now give it for NNKKWILSASKDRTMRLWNIEEID [WDR88] too.
Result :: 2.66
